# target-under-test: human CD71 on cells (SKBR3; SW620-rLuc-KRAS) (human, UniProt P02786 1-760)
# Sequence (P02786 whole entry): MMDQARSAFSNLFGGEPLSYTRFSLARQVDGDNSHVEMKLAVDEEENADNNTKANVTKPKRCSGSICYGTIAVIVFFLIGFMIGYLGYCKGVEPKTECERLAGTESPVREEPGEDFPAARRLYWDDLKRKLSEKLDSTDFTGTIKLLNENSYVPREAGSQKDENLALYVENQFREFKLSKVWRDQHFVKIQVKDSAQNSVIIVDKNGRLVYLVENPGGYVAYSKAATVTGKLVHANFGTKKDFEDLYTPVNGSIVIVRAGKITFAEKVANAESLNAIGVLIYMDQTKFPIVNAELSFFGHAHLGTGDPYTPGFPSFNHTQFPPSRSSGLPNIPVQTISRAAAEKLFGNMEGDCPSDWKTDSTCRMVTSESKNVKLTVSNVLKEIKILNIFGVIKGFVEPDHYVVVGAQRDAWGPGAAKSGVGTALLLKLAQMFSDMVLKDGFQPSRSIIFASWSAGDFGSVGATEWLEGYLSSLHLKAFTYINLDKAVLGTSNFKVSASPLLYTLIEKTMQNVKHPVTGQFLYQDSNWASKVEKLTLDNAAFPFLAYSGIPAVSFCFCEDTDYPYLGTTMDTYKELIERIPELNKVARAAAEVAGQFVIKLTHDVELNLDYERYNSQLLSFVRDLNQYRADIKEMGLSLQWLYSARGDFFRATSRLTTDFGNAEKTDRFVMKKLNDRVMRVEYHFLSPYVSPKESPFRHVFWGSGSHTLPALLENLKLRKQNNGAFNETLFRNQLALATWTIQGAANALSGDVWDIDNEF
# procedure-summary: cell-based or functional assay
Field 'label' (enum: Condition met / Condition not met). Set to Condition met when LSA EC50 (luciferase reporter assay, SW620-rLuc-KRAS cells, 72 h) is strictly under 0.6 nM; else Condition not met.

- CD71-binding FN3 domain of SEQ ID NO: 343 conjugated to KRAS2 siRNA (designed binder, conjugated to KRAS2 tool siRNA; site and linker not stated) MSLPAPKNLVVSRVTEDSARLSWTAPDAAFDSFFIGYLEPQPPGEAIALWVPGSERSYDLTGLKPGTEYNVTIQGVKGGFPSEPLVATFTT: Condition not met
- CD71-binding FN3 domain of SEQ ID NO: 333 conjugated to KRAS2 siRNA (designed binder, conjugated to KRAS2 tool siRNA; site and linker not stated) MSLPAPENLVVSRVTEDSARLSWTAPDAAFDSFFIGYLEPQPPGEAIALYVPGSERSYDLTGLKPGTEYNVTIQGVKGGFPSLPLVATFTT: Condition met
- CD71-binding FN3 domain of SEQ ID NO: 281 conjugated to KRAS2 siRNA (designed binder, conjugated to KRAS2 tool siRNA; site and linker not stated) MSLPAPKNLVVSRVTEDSARLSWTAPDAAFDSFFIGYLEPQPPGEAIALYVPGSERSYDLTGLKPGTEYNVTIQGVKGGFPSEPLIANFTT: Condition met
- CD71-binding FN3 domain of SEQ ID NO: 295 conjugated to KRAS2 siRNA (designed binder, conjugated to KRAS2 tool siRNA; site and linker not stated) MSLPAPKNLVVSRVTEDSARLSWTAPDAAFDSFFIGYLEPQPPGEAIDLYVPGSERSYDLTGLKPGTEYNVTIQGVKGGFPSEPLVATFTT: Condition met
- CD71-binding FN3 domain of SEQ ID NO: 331 conjugated to KRAS2 siRNA (designed binder, conjugated to KRAS2 tool siRNA; site and linker not stated) MSLPAPKNLVVSRVTEDSARLSWTAPDAAFDSFFIGYLEPQPPGEAIHLYVPGSERSYDLTGLKPGTEYNVTIQGVKVGFPSEPLIANFTT: Condition not met
- CD71-binding FN3 domain of SEQ ID NO: 341 conjugated to KRAS2 siRNA (designed binder, conjugated to KRAS2 tool siRNA; site and linker not stated) MSLPAPKNLVVSRVTEDSARLSWTAPDAAFDSFFIGYLEPQPPGEAIELYVPGSERSYDLTGLKPGTEYNVTIQGVKGGFPSLPLVAIFTT: Condition not met
- CD71-binding FN3 domain of SEQ ID NO: 290 conjugated to KRAS2 siRNA (designed binder, conjugated to KRAS2 tool siRNA; site and linker not stated) MSLPAPKNLVVSRVTEDSARLSWTAPDAAFDSFFIGYLEPQPPGEAIHLYVPGSERSYDLTGLKPGTEYNVTIQGVKGGFPSEPLVATFTT: Condition met
- CD71-binding FN3 domain of SEQ ID NO: 234 conjugated to KRAS2 siRNA (designed binder, conjugated to KRAS2 tool siRNA; site and linker not stated) MSLPAPKNLVVSRVTEDSARLSWTAPDAAFDSFFIGYLEPQPPGEAIALYVPGSERSYDLTGLKPGTEYNVTIQGVKGGFPSEPLVAHFTT: Condition not met
- CD71-binding FN3 domain of SEQ ID NO: 973 conjugated to KRAS2 siRNA (designed binder, conjugated to KRAS2 tool siRNA; site and linker not stated) MSLPAPKNLVVSRVTEDSARLSWTAPDAAFDSFFIGYLEPQPPGEAIHLYVPGSERSYDLTGLKPGTEYNGTIQGVKVGFPSEPLIANFTT: Condition met
